# measurement-target: recombinant human CK2 (Homo sapiens, UniProt P68400)
# Sequence (P68400 whole entry): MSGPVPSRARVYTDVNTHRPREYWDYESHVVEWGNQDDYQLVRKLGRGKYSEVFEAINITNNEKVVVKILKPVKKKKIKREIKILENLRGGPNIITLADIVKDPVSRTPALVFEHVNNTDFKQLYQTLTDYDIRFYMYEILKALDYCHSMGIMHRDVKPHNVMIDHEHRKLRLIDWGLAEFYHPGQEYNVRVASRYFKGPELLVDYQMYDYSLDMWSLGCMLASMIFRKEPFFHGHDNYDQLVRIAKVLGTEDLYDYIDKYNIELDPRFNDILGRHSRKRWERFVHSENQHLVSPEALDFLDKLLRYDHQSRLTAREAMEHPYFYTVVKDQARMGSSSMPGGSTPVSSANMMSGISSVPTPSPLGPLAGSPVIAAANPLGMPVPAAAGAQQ
# Sequence (P67870 whole entry partner): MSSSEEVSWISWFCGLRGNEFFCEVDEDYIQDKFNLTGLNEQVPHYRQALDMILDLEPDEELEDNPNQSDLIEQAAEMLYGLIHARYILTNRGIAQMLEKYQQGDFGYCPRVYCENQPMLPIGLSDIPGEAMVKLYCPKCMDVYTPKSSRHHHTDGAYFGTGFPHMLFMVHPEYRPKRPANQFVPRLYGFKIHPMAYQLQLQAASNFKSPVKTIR
# assay-info: CK2 assay, cell-free, 33P-ATP filter plate
readout-name: IC50 (nM)

Some entries whose results are on file:
O=C1NC(=O)/C(=C/c2cnn3ccc(Nc4ccc(Cl)cc4)nc23)N1: 20
CC(C)Nc1ccn2ncc(/C=C3\NC(=O)NC3=O)c2n1: 574
CN(C)CCOc1ccc(Nc2ccn3ncc(/C=C4\NC(=O)NC4=O)c3n2)cc1: 58
O=C1NC(=O)/C(=C/c2cnn3ccc(Nc4cccc(OCCN5CCOCC5)c4)nc23)N1: 303
O=C1NC(=O)/C(=C\c2cnn3ccc(Nc4cccc(Cl)c4)nc23)S1: 3

A = O=C1NC(=O)/C(=C/c2cnn3ccc(Nc4ccc(Cl)cc4)nc23)S1
B = CN1C(=O)NC(=O)/C1=C/c1cnn2ccc(Nc3cccc(Cl)c3)nc12
C = O=C1NC(=O)/C(=C/c2cnn3ccc(NCCF)nc23)N1
D = O=C1NC(=O)/C(=C/c2cnn3ccc(N4CCCCC4)nc23)N1
E = CC(C)(C)c1cccc(Nc2ccn3ncc(/C=C4/NC(=O)NC4=O)c3n2)c1
Qu. Kindly order the items shown according to IC50, from the highest value down. Sort and list the labels as requested.
Ans. C, B, E, D, A

---

# measurement-target: recombinant PIM-1 (Homo sapiens, UniProt P11309)
# Sequence (P11309 whole entry): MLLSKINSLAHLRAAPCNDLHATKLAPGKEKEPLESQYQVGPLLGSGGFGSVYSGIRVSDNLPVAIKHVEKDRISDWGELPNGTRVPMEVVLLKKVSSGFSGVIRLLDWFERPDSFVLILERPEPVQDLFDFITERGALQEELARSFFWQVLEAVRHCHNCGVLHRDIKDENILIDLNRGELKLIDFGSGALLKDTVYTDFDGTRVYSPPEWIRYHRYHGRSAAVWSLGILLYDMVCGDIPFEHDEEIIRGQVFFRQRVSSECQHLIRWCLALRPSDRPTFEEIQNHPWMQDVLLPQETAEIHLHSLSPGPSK
# assay-info: PIM-1 kinase assay, 33P-ATP filter plate
# test-context: recombinant PIM-1, 15 uM ATP; read-out: PIM1: IC50
pIC50: −log10 of the molar value.
readout-name: pIC50

Some entries whose results are on file:
CC(C)Nc1ccn2ncc(/C=C3\NC(=O)NC3=O)c2n1: 5.80
COC(=O)c1cccc(-c2ccn3ncc(/C=C4/SC(=O)NC4=O)c3n2)c1: 7.04
CC(C)(C)c1cccc(Nc2ccn3ncc(/C=C4/NC(=O)NC4=O)c3n2)c1: 6.05
CCN(CC)Cc1cccc(Nc2ccn3ncc(/C=C4\NC(=O)NC4=O)c3n2)c1: 6.43
O=C1NC(=S)S/C1=C\c1cnn2ccc(-c3ccccc3F)nc12: 7.60

P = CN1CCCN(c2ccn3ncc(/C=C4\SC(=O)NC4=O)c3n2)CC1
Q = O=C1NC(=O)/C(=C/c2cnn3ccc(N4CCCCC4)nc23)N1
R = O=C1NC(=O)/C(=C\c2cnn3ccc(Nc4cccc(Cn5ccnc5)c4)nc23)N1
Qu. List by increasing pIC50. Sort and list the labels as requested.
Ans. Q, P, R
(Q: 6.37, P: 6.90, R: 7.21)

I = O=C1NC(=O)/C(=C/c2cnn3ccc(Nc4cccc(OCCN5CCOCC5)c4)nc23)N1
II = CN(C)CCOc1ccc(Nc2ccn3ncc(/C=C4\NC(=O)NC4=O)c3n2)cc1
Qu. # compare pIC50 for I vs II ; return the one with the smaller value // output: label of the selected item
Ans. I
(I: 5.90, II: 6.37)

1 = CC(C)Oc1cccc(Nc2ccn3ncc(/C=C4\NC(=O)NC4=O)c3n2)c1
2 = O=C1NC(=O)/C(=C/c2cnn3ccc(-c4ccccc4F)nc23)N1
Qu. # compare pIC50 for 1 vs 2 ; return the one with the smaller value // output: label of the selected item
Ans. 2

A = CC(C)CNc1ccn2ncc(/C=C3\NC(=O)NC3=O)c2n1
B = O=C1NC(=O)/C(=C\c2cnn3ccc(Nc4cccc(Cl)c4)nc23)S1
C = O=C1NC(=O)/C(=C\c2cnn3ccc(-c4cccc(C(=O)O)c4)nc23)S1
Qu. List by increasing pIC50. Sort and list the labels as requested.
Ans. C, A, B

---

# Tested on: K-562 human chronic myelogenous leukemia (CML) cells
# assay-info: Alamar Blue (AB) cell proliferation assay, K-562
# Assay type: cell-based
# test-context: K562, 96 h, K-562 cells, four days with compound
pIC50: −log10 of the molar value.
In this section, each of the compounds is paired with its reported pIC50.

Some entries whose results are on file:
O=C1NC(=O)/C(=C\c2cnn3ccc(-c4cccc(C(=O)O)c4)nc23)S1: < 5.00
Cc1nccn1-c1cccc(Nc2ccn3ncc(/C=C4\SC(=O)NC4=O)c3n2)c1: < 5.00

The record that follows has no pIC50 shown yet.
Qu. Quote pIC50 reported for COC(=O)c1cccc(-c2ccn3ncc(/C=C4/SC(=S)NC4=O)c3n2)c1 please.
Ans. < 5.00

---

# measurement-target: recombinant human CK2 (Homo sapiens)
# assay-info: CK2 assay, cell-free, 33P-ATP filter plate
pIC50: −log10 of the molar value.
readout-name: pIC50

O=C1NC(=S)S/C1=C\c1cnn2ccc(-c3ccccc3F)nc12: 7.82

a = COC(=O)c1cccc(-c2ccn3ncc(/C=C4/SC(=S)NC4=O)c3n2)c1
b = COC(=O)c1cccc(-c2ccn3ncc(/C=C4/SC(=O)NC4=O)c3n2)c1
c = O=C1NC(=S)S/C1=C/c1cnn2ccc(Nc3cccc(Cl)c3)nc12
d = CC(C)CNc1ccn2ncc(/C=C3\NC(=O)NC3=O)c2n1
Qu. Kindly order the items shown according to pIC50, from the highest value down. Sort and list the labels as requested.
Ans. c, a, d, b

---

# measurement-target: recombinant PIM-1 (Homo sapiens, UniProt P11309)
# assay-info: PIM-1 kinase assay, 33P-ATP filter plate
# test-context: recombinant PIM-1, 15 uM ATP; read-out: PIM1: IC50
readout-name: IC50 (µM)

CN1CCN(c2cccc(Nc3ccn4ncc(/C=C5\NC(=O)NC5=O)c4n3)c2)CC1: 0.518

1 = CN1CCN(c2ccc(Nc3ccn4ncc(/C=C5/NC(=O)NC5=O)c4n3)cc2)CC1
2 = CN1C(=O)NC(=O)/C1=C/c1cnn2ccc(Nc3cccc(Cl)c3)nc12
Qu. # compare IC50 for 1 vs 2 ; return the one with the smaller value // output: label of the selected item
Ans. 2
